Record set of log10(Ki) for target or system Serine protease 1 (Bos taurus, UniProt P00760).
Values are log10 of Ki in µM.

| molecule | numericResult |
| --- | --- |
| N=C(N)NN=CC=NN=C(N)N [biguanidine, 2] | 2.19 |

Documented log10(Ki) of NC(N)=NNc1ccc(NNC(N)N)cc1 [biguanidine, 3] : 1.71

The reported log10(Ki) of the molecule NC(N)=NN=Cc1ccc(C=NN=C(N)N)cc1 [biguanidine, 1] was 1.94

GET /value?item= Cc1ccc(C(=NN=C(N)N)P(O)O)cc1 [guanidine, 5] &field=log10(Ki) returns 0.51

Input NC(N)=NN=C1C(=O)Nc2ccccc21 [guanidine, 4] . Output log10(Ki): 0.60

====

assayedTarget: Genome polyprotein [1066-1250,R1182K]/[1394-1440,K1405R,D1408E] (dengue virus type 2, UniProt P14340+P27914, D1408E/K1405R/R1182K)
Construct: 1066-1250; 1394-1440
Sequence (P14340 1394-1440, looked up, stated change not applied): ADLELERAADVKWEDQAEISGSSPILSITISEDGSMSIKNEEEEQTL
Sequence (P27914 1066-1250, looked up, stated change not applied): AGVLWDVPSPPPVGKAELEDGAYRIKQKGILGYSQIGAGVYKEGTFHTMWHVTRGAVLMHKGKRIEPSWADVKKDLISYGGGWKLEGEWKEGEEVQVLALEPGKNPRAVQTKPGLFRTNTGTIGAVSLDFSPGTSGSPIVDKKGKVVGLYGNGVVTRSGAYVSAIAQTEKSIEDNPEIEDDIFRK
assayRemarks: Protease Inhibition Assay
conditionDescription: pH 8.5; 23 °C
Listing of recorded Ki by entry.
Dear colleague, please return just the value in µM, with no unit written.

These solved cases illustrate the format of a correct answer.
| structureNotation | resultUnit | Ki |
| --- | --- | --- |
| Cc1ccc(C(=NN=C(N)N)P(O)O)cc1 | µM | 14 |
| NC(N)=NN=Cc1ccc(C=NN=C(N)N)cc1 | µM | 44 |
| NC(N)=NN=C1C(=O)Nc2ccccc21 | µM | 23 |
| N=C(N)NN=CC=NN=C(N)N | µM | 423 |

Read the next record carefully.
Query NC(N)=NNc1ccc(NNC(N)N)cc1 yields Ki of 1780

====

As an illustration, consider measured pKi for molecules on Genome polyprotein [1424-1463]/[1502-1685] (West Nile virus).
Sequence (P06935 1424-1463): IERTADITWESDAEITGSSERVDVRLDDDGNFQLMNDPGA
Sequence (P06935 1502-1685): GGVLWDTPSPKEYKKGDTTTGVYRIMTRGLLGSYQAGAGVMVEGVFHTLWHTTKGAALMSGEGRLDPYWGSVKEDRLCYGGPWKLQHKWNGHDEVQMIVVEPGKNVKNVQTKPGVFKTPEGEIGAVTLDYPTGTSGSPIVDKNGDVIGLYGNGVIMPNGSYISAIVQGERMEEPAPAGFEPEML
pKi here: minus log base 10 of the concentration, concentration in moles per litre.

A selection of reference data follows.
| molecule | numericResult |
| --- | --- |
| Cc1ccc(C(=NN=C(N)N)P(O)O)cc1 [guanidine, 5] | 4.89 |
| NC(N)=NN=C1C(=O)Nc2ccccc21 [guanidine, 4] | 4.80 |
| N=C(N)NN=CC=NN=C(N)N [biguanidine, 2] | 3.47 |
| NC(N)=NN=Cc1ccc(C=NN=C(N)N)cc1 [biguanidine, 1] | 4.46 |

Next, consider the following molecule.
Tested on Genome polyprotein [1424-1463]/[1502-1685] (West Nile virus), the item NC(N)=NNc1ccc(NNC(N)N)cc1 [biguanidine, 3] showed pKi equal to 2.96
